The measured values listed here are drawn from BigSolDB 2.1.

# Condition notes: in ethyl acetate, 318.15 K
Measured metric: solubility (mole fraction)
Respond numerically, and do not add a unit to the figure.

Entry `Cc1cc(C(=O)O)ccc1[N+](=O)[O-]` has what solubility (mole fraction)?
0.0205

---

# Condition notes: in n-propanol, 288.15 K
Measured metric: solubility (mole fraction)
Respond numerically, and do not add a unit to the figure.

Entry `Cc1cc(C(=O)O)ccc1[N+](=O)[O-]` has what solubility (mole fraction)?
0.00815

---

# Condition notes: in n-butanol, 288.15 K
Measured metric: solubility (mole fraction)
Respond numerically, and do not add a unit to the figure.

Entry `Cc1cc(C(=O)O)ccc1[N+](=O)[O-]` has what solubility (mole fraction)?
0.00789

---

# Condition notes: in NMP, 288.15 K
Measured metric: solubility (mole fraction)
Respond numerically, and do not add a unit to the figure.

Entry `Cc1cc(C(=O)O)ccc1[N+](=O)[O-]` has what solubility (mole fraction)?
0.09

---

# Condition notes: in acetone, 308.15 K
Measured metric: solubility (mole fraction)
Respond numerically, and do not add a unit to the figure.

Entry `Cc1cc(C(=O)O)ccc1[N+](=O)[O-]` has what solubility (mole fraction)?
0.0311

---

# Condition notes: in methanol, 303.15 K
Measured metric: solubility (mole fraction)
Respond numerically, and do not add a unit to the figure.

Entry `Cc1cc(C(=O)O)ccc1[N+](=O)[O-]` has what solubility (mole fraction)?
0.012

---

# Condition notes: in ethyl acetate, 303.15 K
Measured metric: solubility (mole fraction)
Respond numerically, and do not add a unit to the figure.

Entry `Cc1cc(C(=O)O)ccc1[N+](=O)[O-]` has what solubility (mole fraction)?
0.0153

---

# Condition notes: in toluene, 298.15 K
Measured metric: solubility (mole fraction)
Respond numerically, and do not add a unit to the figure.

Entry `Cc1cc(C(=O)O)ccc1[N+](=O)[O-]` has what solubility (mole fraction)?
0.0221

---

# Condition notes: in n-butanol, 283.15 K
Measured metric: solubility (mole fraction)
Respond numerically, and do not add a unit to the figure.

Entry `Cc1cc(C(=O)O)ccc1[N+](=O)[O-]` has what solubility (mole fraction)?
0.00676

---

# Condition notes: in 1,4-dioxane, 303.15 K
Measured metric: solubility (mole fraction)

Entry `Cc1cc(C(=O)O)ccc1[N+](=O)[O-]` has what solubility (mole fraction)?
0.06

---

# Condition notes: in acetone, 303.15 K
Measured metric: solubility (mole fraction)
Respond numerically, and do not add a unit to the figure.

Entry `Cc1cc(C(=O)O)ccc1[N+](=O)[O-]` has what solubility (mole fraction)?
0.0285

---

# Condition notes: in n-propanol, 300.65 K
Measured metric: solubility (mole fraction)
Respond numerically, and do not add a unit to the figure.

Entry `Cc1cc(C(=O)O)ccc1[N+](=O)[O-]` has what solubility (mole fraction)?
0.0109

---

# Condition notes: in ethanol, 305.65 K
Measured metric: solubility (mole fraction)
Respond numerically, and do not add a unit to the figure.

Entry `Cc1cc(C(=O)O)ccc1[N+](=O)[O-]` has what solubility (mole fraction)?
0.0119

---

# Condition notes: in ethanol, 318.15 K
Measured metric: solubility (mole fraction)

Entry `Cc1cc(C(=O)O)ccc1[N+](=O)[O-]` has what solubility (mole fraction)?
0.0155

---

# Condition notes: in n-butanol, 313.15 K
Measured metric: solubility (mole fraction)

Entry `Cc1cc(C(=O)O)ccc1[N+](=O)[O-]` has what solubility (mole fraction)?
0.0163

---

# Condition notes: in ethyl acetate, 298.15 K
Measured metric: solubility (mole fraction)
Respond numerically, and do not add a unit to the figure.

Entry `Cc1cc(C(=O)O)ccc1[N+](=O)[O-]` has what solubility (mole fraction)?
0.014

---

# Condition notes: in DMF, 298.15 K
Measured metric: solubility (mole fraction)
Respond numerically, and do not add a unit to the figure.

Entry `Cc1cc(C(=O)O)ccc1[N+](=O)[O-]` has what solubility (mole fraction)?
0.0975

---

# Condition notes: in n-butanol, 318.15 K
Measured metric: solubility (mole fraction)

Entry `Cc1cc(C(=O)O)ccc1[N+](=O)[O-]` has what solubility (mole fraction)?
0.0188

---

# Condition notes: in DMF, 318.15 K
Measured metric: solubility (mole fraction)
Respond numerically, and do not add a unit to the figure.

Entry `Cc1cc(C(=O)O)ccc1[N+](=O)[O-]` has what solubility (mole fraction)?
0.162

---

# Condition notes: in methanol, 318.15 K
Measured metric: solubility (mole fraction)
Respond numerically, and do not add a unit to the figure.

Entry `Cc1cc(C(=O)O)ccc1[N+](=O)[O-]` has what solubility (mole fraction)?
0.0184

---

# Condition notes: in 1,4-dioxane, 293.15 K
Measured metric: solubility (mole fraction)
Respond numerically, and do not add a unit to the figure.

Entry `Cc1cc(C(=O)O)ccc1[N+](=O)[O-]` has what solubility (mole fraction)?
0.0493

---

# Condition notes: in n-butanol, 290.65 K
Measured metric: solubility (mole fraction)
Respond numerically, and do not add a unit to the figure.

Entry `Cc1cc(C(=O)O)ccc1[N+](=O)[O-]` has what solubility (mole fraction)?
0.00844

---

# Condition notes: in isopropanol, 293.15 K
Measured metric: solubility (mole fraction)
Respond numerically, and do not add a unit to the figure.

Entry `Cc1cc(C(=O)O)ccc1[N+](=O)[O-]` has what solubility (mole fraction)?
0.0108

---

# Condition notes: in ethyl acetate, 285.65 K
Measured metric: solubility (mole fraction)
Respond numerically, and do not add a unit to the figure.

Entry `Cc1cc(C(=O)O)ccc1[N+](=O)[O-]` has what solubility (mole fraction)?
0.0111

---

# Condition notes: in n-butanol, 298.15 K
Measured metric: solubility (mole fraction)
Respond numerically, and do not add a unit to the figure.

Entry `Cc1cc(C(=O)O)ccc1[N+](=O)[O-]` has what solubility (mole fraction)?
0.0108

---

# Condition notes: in n-propanol, 283.15 K
Measured metric: solubility (mole fraction)
Respond numerically, and do not add a unit to the figure.

Entry `Cc1cc(C(=O)O)ccc1[N+](=O)[O-]` has what solubility (mole fraction)?
0.00726

---

# Condition notes: in NMP, 298.15 K
Measured metric: solubility (mole fraction)
Respond numerically, and do not add a unit to the figure.

Entry `Cc1cc(C(=O)O)ccc1[N+](=O)[O-]` has what solubility (mole fraction)?
0.105

---

# Condition notes: in n-butanol, 293.15 K
Measured metric: solubility (mole fraction)
Respond numerically, and do not add a unit to the figure.

Entry `Cc1cc(C(=O)O)ccc1[N+](=O)[O-]` has what solubility (mole fraction)?
0.00913

---

# Condition notes: in n-butanol, 300.65 K
Measured metric: solubility (mole fraction)
Respond numerically, and do not add a unit to the figure.

Entry `Cc1cc(C(=O)O)ccc1[N+](=O)[O-]` has what solubility (mole fraction)?
0.0116

---

# Condition notes: in ethanol, 300.65 K
Measured metric: solubility (mole fraction)
Respond numerically, and do not add a unit to the figure.

Entry `Cc1cc(C(=O)O)ccc1[N+](=O)[O-]` has what solubility (mole fraction)?
0.0108

---

# Condition notes: in NMP, 300.65 K
Measured metric: solubility (mole fraction)
Respond numerically, and do not add a unit to the figure.

Entry `Cc1cc(C(=O)O)ccc1[N+](=O)[O-]` has what solubility (mole fraction)?
0.109

---

# Condition notes: in acetone, 293.15 K
Measured metric: solubility (mole fraction)
Respond numerically, and do not add a unit to the figure.

Entry `Cc1cc(C(=O)O)ccc1[N+](=O)[O-]` has what solubility (mole fraction)?
0.0238

---

# Condition notes: in NMP, 310.65 K
Measured metric: solubility (mole fraction)
Respond numerically, and do not add a unit to the figure.

Entry `Cc1cc(C(=O)O)ccc1[N+](=O)[O-]` has what solubility (mole fraction)?
0.128

---

# Condition notes: in DMF, 315.65 K
Measured metric: solubility (mole fraction)
Respond numerically, and do not add a unit to the figure.

Entry `Cc1cc(C(=O)O)ccc1[N+](=O)[O-]` has what solubility (mole fraction)?
0.152

---

# Condition notes: in NMP, 283.15 K
Measured metric: solubility (mole fraction)

Entry `Cc1cc(C(=O)O)ccc1[N+](=O)[O-]` has what solubility (mole fraction)?
0.0856

---

# Condition notes: in n-butanol, 295.65 K
Measured metric: solubility (mole fraction)
Respond numerically, and do not add a unit to the figure.

Entry `Cc1cc(C(=O)O)ccc1[N+](=O)[O-]` has what solubility (mole fraction)?
0.00994

---

# Condition notes: in acetonitrile, 288.15 K
Measured metric: solubility (mole fraction)
Respond numerically, and do not add a unit to the figure.

Entry `Cc1cc(C(=O)O)ccc1[N+](=O)[O-]` has what solubility (mole fraction)?
0.00302

---

# Condition notes: in acetonitrile, 285.65 K
Measured metric: solubility (mole fraction)
Respond numerically, and do not add a unit to the figure.

Entry `Cc1cc(C(=O)O)ccc1[N+](=O)[O-]` has what solubility (mole fraction)?
0.00276

---

# Condition notes: in 1,4-dioxane, 315.65 K
Measured metric: solubility (mole fraction)

Entry `Cc1cc(C(=O)O)ccc1[N+](=O)[O-]` has what solubility (mole fraction)?
0.0754
